- system.under.test: Patatin-like phospholipase domain-containing protein 2 (Mus musculus)
- Sequence (Q8BJ56 whole entry): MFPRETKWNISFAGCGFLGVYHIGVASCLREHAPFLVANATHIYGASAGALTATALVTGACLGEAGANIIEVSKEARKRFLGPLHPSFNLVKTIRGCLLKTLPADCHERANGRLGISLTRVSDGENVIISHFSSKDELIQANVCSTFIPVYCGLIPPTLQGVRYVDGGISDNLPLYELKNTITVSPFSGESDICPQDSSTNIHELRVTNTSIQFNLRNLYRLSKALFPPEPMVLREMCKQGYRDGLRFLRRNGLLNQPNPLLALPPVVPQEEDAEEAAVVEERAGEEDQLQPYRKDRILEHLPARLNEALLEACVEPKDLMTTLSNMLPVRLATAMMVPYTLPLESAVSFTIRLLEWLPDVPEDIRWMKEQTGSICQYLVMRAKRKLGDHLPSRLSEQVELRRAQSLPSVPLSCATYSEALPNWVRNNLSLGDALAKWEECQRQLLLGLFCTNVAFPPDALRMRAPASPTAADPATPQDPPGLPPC
- measurement.description: Inhibition of mouse recombinant ATGL expressed in African green monkey COS7 cells assessed as reduction in triglyceride hydrolase activity using radio-labelled triolein substrate incubated for 1 hr by liquid scintillation counting
measured.parameter: IC50

| smi | system.under.test | result |
| --- | --- | --- |
| COc1cc(/C=N/N2CCN(c3ccccc3)CC2)cc(OC)c1OC | Patatin-like phospholipase domain-containing protein 2 (Mus musculus) | > 200 µM |
| Oc1ccc(/C=N/N2CCCN(c3ccccc3)CC2)c(O)c1 | Patatin-like phospholipase domain-containing protein 2 (Mus musculus) | > 200 µM |
| COc1ccc(NC(=O)N2CCN(c3ccccc3)CC2)cc1OC | Patatin-like phospholipase domain-containing protein 2 (Mus musculus) | > 200 µM |
| Oc1cccc(/C=N/N2CCN(c3ccccc3)CC2)c1 | Patatin-like phospholipase domain-containing protein 2 (Mus musculus) | 70 µM |
| C1=C(/C=N/N2CCN(c3ccccc3)CC2)CCCC1 | Patatin-like phospholipase domain-containing protein 2 (Mus musculus) | 130 µM |
| C(=N\N1CCN(c2ccccc2)CC1)/c1ccccn1 | Patatin-like phospholipase domain-containing protein 2 (Mus musculus) | > 200 µM |
| COc1cc(OC)c(OC)cc1/C=N/N1CCN(c2ccccc2)CC1 | Patatin-like phospholipase domain-containing protein 2 (Mus musculus) | > 200 µM |
| C(=N\N1CCN(c2ccccc2)CC1)/c1ccc2c(c1)OCO2 | Patatin-like phospholipase domain-containing protein 2 (Mus musculus) | > 200 µM |

====

- system.under.test: Patatin-like phospholipase domain-containing protein 2 (Mus musculus, UniProt Q8BJ56)
- measurement.description: Inhibition of mouse recombinant ATGL expressed in African green monkey COS7 cells assessed as reduction in triglyceride hydrolase activity using radio-labelled triolein substrate incubated for 1 hr by liquid scintillation counting

| smi | result.qualifier | IC50, µM |
| --- | --- | --- |
| CN(C)c1ccc(/C=N/N2CCN(c3ccccc3)CC2)cc1 | > | 200 |
| Clc1ccc(/C=N/N2CCN(c3ccccc3)CC2)cc1Cl | > | 200 |
| C(=N\N1CCN(c2ccccc2)CC1)/C1CCCCC1 | = | 200 |
| COc1cc(/C=N/N2CCN(c3ccccc3)CC2)ccc1O | = | 60 |
| C(=N\N1CCN(c2ccccc2)CC1)/c1ccncc1 | = | 140 |
| COc1ccc(/C=N/N2CCN(c3ccccc3)CC2)cc1OC | = | 100 |
